# Assay target: recombinant HA, subtype H5 (A/Vietnam/1203/2004 (H5N1)) (influenza A virus A/Vietnam/1203/2004 …, UniProt Q80A26 6-554)
# Assay comment: ELISA, coated HA, IgG 5 µg/ml
Recorded endpoint: OD 492 nm (OD 492 nm)

1. CR6310 (antibody, V domains shown) VH: EVQLVESGAEVKKPGSSVKVSCKASGGPFRSYAISWVRQAPGQGPEWMGGIIPIFGTTKYAPKFQGRVTITADDFAGTVYMELSSLRSEDTAMYYCAKHMGYQVRETMDVWGKGTTVTVSS VL: SYVLTQPPSVSVAPGQTARITCGGNNIGSKSVHWYQQKPGQAPVLVVYDDSDRPSGIPERFSGSNSGNTATLTISRVEAGDEADYYCQVWDSSSDHAVFGGGTQLTVLG	1.37
2. CR6332 (antibody, V domains shown) VH: QVQLVQSGAEVKKPGSSVKVSCKASGGPFRNFAINWVRQAPGQGLEWMGGIIAVFGTTKYAHKFQGRVTITADDSTNTAYMELGSLKSEDTAVYYCARGPHYYSSYMDVWGEGTTVTVSS VL: DIQLTQSPSSLSASVGDRVTITCRASQGISTYLAWYQQKPGKVPKLLIYAASTLQSGVPSRFSGSGSGTDFTLTISSLQPEDVATYYCQKYNSAPSFGPGTKVDIKR	1.65
